assay: Half life of the compound at pH 7.4; type: physicochemical
METRIC: half-life

> print(dat)
                                   compound  result
1  NC(=O)OCC(C=O)c1ccccc1 (stereo unspecified)  < 30 s

---

experiment: Half life of the compound in buffer; format: physicochemical
METRIC: half-life (min)

> print(dat)
                                   compound  units  quantitative.readout
1  Cc1cc(CC(=O)O)n(C)c1C(=O)c1ccc(Cl)cc1 [ZOMEPIRAC]    min                    30
2  Cc1cc(OCCCS(C)(=O)=O)cc(C)c1-c1cccc(COc2ccc3c(c2)OC[C@H]3CC(=O)O[C@H]2O[C@@H](C(=O)O)[C@H](O)[C@H](O)[C@@H]2O)c1    min                    30
